test system: Enterococcus faecalis; assay: Antibiotic resistance profile, disc diffusion; note: key: R = resistant; I = intermediate; S = sensitive; assay type: cell-based; settings: E. faecalis isolated from burn patients
reported.property: Antibiotic resistance profile

smiles.entry | readout.value
NC[C@H]1O[C@H](O[C@H]2[C@H](O)[C@@H](O[C@H]3O[C@H](CO)[C@@H](O)[C@H](N)[C@H]3O)[C@H](N)C[C@@H]2N)[C@H](O)[C@@H](O)[C@@H]1O | R
CC1(C)S[C@@H]2[C@H](NC(=O)[C@H](N)c3ccccc3)C(=O)N2[C@H]1C(=O)O | S
CN[C@H](CC(C)C)C(=O)N[C@H]1C(=O)N[C@@H](CC(N)=O)C(=O)N[C@H]2C(=O)N[C@H]3C(=O)N[C@H](C(=O)N[C@H](C(=O)O)c4cc(O)cc(O)c4-c4cc3ccc4O)[C@H](O)c3ccc(c(Cl)c3)Oc3cc2cc(c3O[C@@H]2O[C@H](CO)[C@@H](O)[C@H](O)[C@H]2O[C@H]2C[C@](C)(N)[C@H](O)[C@H](C)O2)Oc2ccc(cc2Cl)[C@H]1O | R

====

test system: Enterococcus faecalis; assay: Antibiotic resistance profile, disc diffusion; note: key: R = resistant; I = intermediate; S = sensitive; type: cell-based; conditions: E. faecalis isolated from burn patients

compound | Antibiotic resistance profile
CC[C@H]1OC(=O)[C@H](C)[C@@H](O[C@H]2C[C@@](C)(OC)[C@@H](O)[C@H](C)O2)[C@H](C)[C@@H](O[C@@H]2O[C@H](C)C[C@H](N(C)C)[C@H]2O)[C@](C)(O)C[C@@H](C)C(=O)[C@H](C)[C@@H](O)[C@]1(C)O [E, erythromycin] | R
CCn1cc(C(=O)O)c(=O)c2ccc(C)nc21 [NA, nalidixic acid] | R
Cc1noc(NS(=O)(=O)c2ccc(N)cc2)c1C [G, sulfisoxazole] | R

====

tested on: Enterococcus faecalis; test: Antibiotic resistance profile, disc diffusion; note: key: R = resistant; I = intermediate; S = sensitive; assay type: cell-based; settings: E. faecalis isolated from burn patients
reported.property: Antibiotic resistance profile

compound | readout.value
[H]/N=C(/N)N[C@H]1[C@H](O)[C@@H](O)[C@H](O[C@@H]2O[C@@H](C)[C@](O)(C=O)[C@H]2O[C@@H]2O[C@@H](CO)[C@H](O)[C@@H](O)[C@@H]2NC)[C@@H](N/C(N)=N\[H])[C@@H]1O [S, streptomycin] | R
CN(C)[C@@H]1C(O)=C(C(N)=O)C(=O)[C@@]2(O)C(O)=C3C(=O)c4c(O)cccc4[C@@](C)(O)[C@H]3C[C@@H]12 [Te, tetracycline] | R
O=C(N[C@H](CO)[C@H](O)c1ccc([N+](=O)[O-])cc1)C(Cl)Cl [C, chloramphenicol] | R

Hello, the source for this data is patent US20100324132A1, in case you need it.
